System: U2OS
Test Summary: Multiplex assay against U2OS
Format: toxicity, cell-based
Run Conditions: human, 24 h, 1 µM, compound concentration 1 uM, number of replicates 2
As shown below, each of these molecules has a reported Population Mitochondria Different-Phenotype (%) value.
Give your result in % as a bare value.

# input Please report the measured Population Mitochondria Different-Phenotype (%) for `CC(=O)N(CCN(C)C)c1ccc(N/C(=C2\C(=O)Nc3cc(Cl)ccc32)c2ccccc2)cn1` tested on U2OS.
# output 0

====

As shown below, each of these compounds has a reported Population Membrane Permeable-Phenotype (%) value.
System: HEK-293T
Test Summary: Multiplex assay against HEK293T
Format: toxicity, cell-based
Run Conditions: human, 48 h, 10 µM, compound concentration 10 uM, number of replicates 2
Enter the number, and then the unit.

Some solved cases for reference:
O=S(=O)(c1ccccc1)N(CC(F)(F)F)c1ccc(C(O)(C(F)(F)F)C(F)(F)F)cc1 : 4%
Cn1c(Nc2c(Cl)cccc2Cl)nc2ccc3nc[nH]c(=O)c3c21 : 4%
CN1CCN(C(=O)Cc2ccc(N/C(=C3\C(=O)Nc4cc(Cl)ccc43)c3ccccc3)cc2)CC1 : 4%

# input Give Population Membrane Permeable-Phenotype (%) for the following compound: `N[C@@H]1c2cccnc2[C@H](OC(=O)N2CCC(n3c(=O)[nH]c4ncccc43)CC2)CC[C@H]1c1cccc(F)c1F`
# output 6%

# input Give Population Membrane Permeable-Phenotype (%) for the following compound: `CCc1ncnc(N2CCN(C(C)=O)CC2)c1C#Cc1ccc(N)nc1.Cl.Cl`
# output 0%

====

System: Fibroblast
Test Summary: Multiplex assay against human fibroblast
Format: toxicity, cell-based
Run Conditions: 48 h, 10 µM, compound concentration 10 uM, number of replicates 2
Measured Property: Population Normal (%)
Give your result in % as a bare value.

Some solved cases for reference:
COc1cc(OC)cc(-c2cc3cnc(N)nc3nc2NC(=O)NC(C)(C)C)c1 : 100
Br.Oc1cc2c(cc1O)C(c1ccccc1)CNCC2 (stereo unspecified) : 100
Cn1c(Nc2c(Cl)cccc2Cl)nc2ccc3nc[nH]c(=O)c3c21 : 100

# input Give Population Normal (%) for the following compound: `Cc1cc(-c2cnc(N)c3c(-c4ccc5scnc5c4)csc23)n(C)n1`
# output 100

# input Give Population Normal (%) for the following compound: `CNC(=O)c1nn(C)c2c1C(C)(C)Cc1cnc(Nc3ccc(N4CCN(C)CC4)cc3)nc1-2`
# output 100

# input Give Population Normal (%) for the following compound: `O=C(Nc1ccc(Cl)c(-c2ccccn2)c1)c1cccc(COc2ccc(Br)cc2CNCCO)c1.O=CO`
# output 99

# input Give Population Normal (%) for the following compound: CN(C)CCCN1c2ccccc2Sc2ccc(Cl)cc21.Cl [CHLORPROMAZINE HYDROCHLORIDE]
# output 99

# input Give Population Normal (%) for the following compound: `CCc1ncnc(N2CCN(C(C)=O)CC2)c1C#Cc1ccc(N)nc1.Cl.Cl`
# output 100

# input Give Population Normal (%) for the following compound: `Fc1cccc(-n2cnc3c(NCc4nc5ccc(F)c(F)c5[nH]4)nc(N4CCOCC4)nc32)c1`
# output 100

# input Give Population Normal (%) for the following compound: CN(C)C/C=C/C(=O)Nc1ccc(C(=O)N2CCCC(Nc3ncc(Cl)c(-c4c[nH]c5ccccc45)n3)C2)cc1 (stereo unspecified)
# output 99

# input Give Population Normal (%) for the following compound: `CN1CCN(C(=O)Cc2ccc(N/C(=C3\C(=O)Nc4cc(Cl)ccc43)c3ccccc3)cc2)CC1`
# output 100

src = ChEMBL document CHEMBL5303300
